Data provenance: ChEMBL document CHEMBL1926672

Test: Inhibition of Escherichia coli MurD ligase assessed as residual activity after 15 mins using UDP-MurNAc-L-Ala substrate by malachite green colorimetric method
pIC50: −log10 of the molar value.
quantity: pIC50

* O=C(O)CC[C@@H](NC(=O)c1cccc(COc2ccc(/C=C3\SC(=O)NC3=O)cc2)c1)C(=O)O | 3.89

A. O=C(O)CC[C@@H](NS(=O)(=O)c1ccc(COc2ccc(/C=C3\SC(=S)NC3=O)cc2OCC(=O)O)cc1)C(=O)O
B. O=C(O)CC[C@@H](NS(=O)(=O)c1ccc(COc2ccc(/C=C3\SC(=O)NC3=O)cc2OCC(=O)O)cc1)C(=O)O
C. O=C(O)CC[C@@H](NC(=O)c1cccc(COc2ccc(/C=C3\SC(=S)NC3=O)cc2)c1)C(=O)O
Prompt: Endpoint returns the given molecules ordered by ascending pIC50. In plain terms: list the labels in the order you were asked to.
Response: B, A, C
(B: 3.09, A: 3.33, C: 4.12)

====

Experiment: Inhibition of Escherichia coli MurD ligase assessed as addition of D-[14C]glu to UDP-N-acetyl-muramoyl-L-alanine after 30 mins by radioactivity assay
quantity: IC50 (µM)

I. O=C(O)CC[C@@H](NC(=O)c1cccc(COc2cccc(/C=C3\SC(=S)NC3=O)c2)c1)C(=O)O
II. O=C(O)CC[C@@H](NC(=O)c1ccc(COc2cccc(/C=C3\SC(=S)NC3=O)c2)cc1)C(=O)O
III. O=C(O)CC[C@@H](NS(=O)(=O)c1ccc(COc2ccc(/C=C3\SC(=S)NC3=O)cc2)cc1)C(=O)O
Prompt: Ascending by IC50, please: list the molecules accordingly. List each label, following the requested order.
Response: II, I, III

====

Experiment: Inhibition of Escherichia coli MurD ligase assessed as addition of D-[14C]glu to UDP-N-acetyl-muramoyl-L-alanine after 30 mins by radioactivity assay
quantity: IC50 (µM)

* O=C(O)CC[C@@H](NC(=O)c1ccc(COc2ccc(/C=C3\SC(=S)NC3=O)cc2OCC(=O)O)cc1)C(=O)O | 34
* O=C(O)CC[C@@H](NC(=O)c1cccc(CNc2ccc(/C=C3\SC(=S)NC3=O)cc2)c1)C(=O)O | 45
* O=C(O)CC[C@@H](NS(=O)(=O)c1ccc(COc2cccc(/C=C3\SC(=S)NC3=O)c2)cc1)C(=O)O | 45
